tested system: D(2) dopamine receptor (Rattus norvegicus)
Sequence (P61169 whole entry): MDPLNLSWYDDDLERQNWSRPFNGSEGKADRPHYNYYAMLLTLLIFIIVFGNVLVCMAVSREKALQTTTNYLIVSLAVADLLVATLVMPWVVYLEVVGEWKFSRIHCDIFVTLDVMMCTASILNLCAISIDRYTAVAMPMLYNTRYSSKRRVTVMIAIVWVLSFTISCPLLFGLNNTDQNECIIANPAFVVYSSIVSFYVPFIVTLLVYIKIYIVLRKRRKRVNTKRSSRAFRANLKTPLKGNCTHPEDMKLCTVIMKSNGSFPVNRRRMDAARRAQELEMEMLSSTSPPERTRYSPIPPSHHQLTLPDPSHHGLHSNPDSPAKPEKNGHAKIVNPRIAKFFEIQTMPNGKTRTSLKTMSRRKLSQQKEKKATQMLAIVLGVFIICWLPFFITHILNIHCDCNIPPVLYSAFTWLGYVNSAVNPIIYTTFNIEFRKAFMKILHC
method: Binding affinity against the Dopamine receptor D2 in rat striatum by using [3H]spiperone radioligand
pIC50: −log10 of the molar value.

compound | pIC50
OC(CCCN1CCN(c2ncc(F)cn2)CC1)c1ccc(F)cc1 (stereo unspecified) [BMY-14802] | 5.31
